The measurements presented in this section are drawn from paper PMC7188706.

Assay: Plasma pharmacokinetics and drug monitoring of high-dose, pulsatile sorafenib (LC-MS/MS, non-compartmental)
Settings: human, plasma, oral, 2400 mg, Cmax week 1, mean (± SD), Cohort 3, 3 patients, fixed dose week 1 2400 mg
Measured quantity: Cmax (µg/mL)

line_notation=CNC(=O)c1cc(Oc2ccc(NC(=O)Nc3ccc(Cl)c(C(F)(F)F)c3)cc2)ccn1 observed_value=20.8

* * *

Test: Plasma pharmacokinetics and drug monitoring of high-dose, pulsatile sorafenib (LC-MS/MS, non-compartmental)
Conditions: human, plasma, oral, 2400 mg, Cmax, highest, SD ± 11 mg/L
Measured quantity: Cmax

line_notation=CNC(=O)c1cc(Oc2ccc(NC(=O)Nc3ccc(Cl)c(C(F)(F)F)c3)cc2)ccn1 observed_value="≤ 21000 ng/mL"
